- target desc: T1, Human BCMA (human, UniProt Q02223 1-54, limits assumed)
- T1 construct: also called huBCMA; B-cell maturation antigen
- T1 sequence (looked up): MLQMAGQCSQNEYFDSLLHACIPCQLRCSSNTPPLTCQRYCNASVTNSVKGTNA
- measurement protocol: SPR, IgG immobilised, human BCMA analyte
pKd: −log10 of the molar value.
Would you please tag the item Satisfied when its pKd is 10 or above, and Not satisfied when it is below?

Does pKd meet or surpass 10 for COMBO_Rd4_6nM_C10 (antibody, V domains shown, IgG) VH: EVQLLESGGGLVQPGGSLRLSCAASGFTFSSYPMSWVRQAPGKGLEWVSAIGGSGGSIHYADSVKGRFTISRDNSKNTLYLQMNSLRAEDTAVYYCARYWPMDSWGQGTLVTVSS VL: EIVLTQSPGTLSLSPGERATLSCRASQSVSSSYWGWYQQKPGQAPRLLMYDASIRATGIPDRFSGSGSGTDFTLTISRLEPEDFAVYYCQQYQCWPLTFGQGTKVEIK ?
Satisfied

Does pKd meet or surpass 10 for A02_Rd4_0.6nM_C18 (antibody, V domains shown, IgG) VH: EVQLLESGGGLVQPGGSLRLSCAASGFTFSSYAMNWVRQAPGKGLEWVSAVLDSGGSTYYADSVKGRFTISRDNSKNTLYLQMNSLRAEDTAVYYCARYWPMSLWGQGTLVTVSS VL: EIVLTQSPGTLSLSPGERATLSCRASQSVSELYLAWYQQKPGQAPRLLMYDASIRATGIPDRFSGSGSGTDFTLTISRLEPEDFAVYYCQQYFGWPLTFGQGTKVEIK ?
Satisfied

Does pKd meet or surpass 10 for A02_Rd4_6nM_C01 (antibody, V domains shown, IgG) VH: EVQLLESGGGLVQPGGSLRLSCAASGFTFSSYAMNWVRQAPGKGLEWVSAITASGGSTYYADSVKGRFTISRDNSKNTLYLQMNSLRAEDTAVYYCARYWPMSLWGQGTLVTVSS VL: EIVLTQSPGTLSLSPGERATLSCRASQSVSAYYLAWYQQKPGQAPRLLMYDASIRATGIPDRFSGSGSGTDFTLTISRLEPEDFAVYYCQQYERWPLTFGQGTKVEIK ?
Satisfied

Does pKd meet or surpass 10 for C01_Rd4_0.6nM_C16 (antibody, V domains shown, IgG) VH: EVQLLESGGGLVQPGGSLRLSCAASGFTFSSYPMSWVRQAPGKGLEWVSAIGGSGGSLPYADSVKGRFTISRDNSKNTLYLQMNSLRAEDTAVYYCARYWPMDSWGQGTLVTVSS VL: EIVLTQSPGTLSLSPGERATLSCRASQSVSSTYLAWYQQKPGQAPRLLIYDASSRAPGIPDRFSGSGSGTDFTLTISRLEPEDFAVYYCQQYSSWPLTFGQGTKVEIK ?
Not satisfied

Does pKd meet or surpass 10 for A02_Rd4_6nM_C26 (antibody, V domains shown, IgG) VH: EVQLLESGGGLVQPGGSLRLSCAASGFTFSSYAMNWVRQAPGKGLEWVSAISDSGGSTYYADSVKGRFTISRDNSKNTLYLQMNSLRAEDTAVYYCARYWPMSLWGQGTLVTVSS VL: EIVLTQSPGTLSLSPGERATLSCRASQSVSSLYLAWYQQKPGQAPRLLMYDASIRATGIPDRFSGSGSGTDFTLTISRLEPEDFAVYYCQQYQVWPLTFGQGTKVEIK ?
Satisfied
